// provenance: patent US9493485B2

Molecular target: BACE1 (Homo sapiens (Human))
Sequence (P56817 46-501): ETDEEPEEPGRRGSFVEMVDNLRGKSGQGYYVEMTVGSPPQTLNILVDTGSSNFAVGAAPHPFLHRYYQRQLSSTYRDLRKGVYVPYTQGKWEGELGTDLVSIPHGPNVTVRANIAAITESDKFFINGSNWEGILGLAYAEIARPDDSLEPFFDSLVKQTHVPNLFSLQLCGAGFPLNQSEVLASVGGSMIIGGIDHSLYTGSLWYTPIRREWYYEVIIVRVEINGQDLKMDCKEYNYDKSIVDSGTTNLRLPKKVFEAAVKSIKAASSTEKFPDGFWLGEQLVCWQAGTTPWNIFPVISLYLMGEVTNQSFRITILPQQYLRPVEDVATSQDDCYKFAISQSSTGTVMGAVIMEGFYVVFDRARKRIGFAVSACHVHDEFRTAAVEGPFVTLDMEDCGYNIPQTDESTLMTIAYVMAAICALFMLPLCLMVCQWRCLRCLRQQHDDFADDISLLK
Assay: BACE1 FP assay
Format: biochemical
Details: pH 4.5
The reader will find reported IC50 values listed item by item below.
QUANTITY_MEASURED: IC50 (nM)

>  <MOLECULE>
CC#Cc1cncc(-c2csc(C3(C)CC4(CCC(F)(F)CC4)OC(N)=N3)c2)c1 (centres unmarked)

>  <TARGET_OR_TEST_SYSTEM>
BACE1 (Homo sapiens (Human))

>  <VALUE_OBSERVED>
1160

$$$$
>  <MOLECULE>
CC1(c2cc(NC(=O)c3ccc(Cl)cn3)ccc2F)N=C(N)OC2(CCC2)C1(F)F (centres unmarked)

>  <TARGET_OR_TEST_SYSTEM>
BACE1 (Homo sapiens (Human))

>  <VALUE_OBSERVED>
66

$$$$
>  <MOLECULE>
C[C@@]1(c2cc(NC(=O)c3ccc(C4CC4)cn3)ccc2F)CC2(CCC(F)(F)CC2)OC(N)=N1

>  <TARGET_OR_TEST_SYSTEM>
BACE1 (Homo sapiens (Human))

>  <VALUE_OBSERVED>
1830

$$$$
>  <MOLECULE>
CCCn1cc(-c2ccc(F)c(C3(C)CC4(CCOCC4)OC(N)=N3)c2)cn1 (centres unmarked)

>  <TARGET_OR_TEST_SYSTEM>
BACE1 (Homo sapiens (Human))

>  <VALUE_OBSERVED>
34100

$$$$
>  <MOLECULE>
C[C@@]1(c2cc(NCc3ccc(F)cn3)ccc2F)CC2(CCC2)OC(N)=N1

>  <TARGET_OR_TEST_SYSTEM>
BACE1 (Homo sapiens (Human))

>  <VALUE_OBSERVED>
179000

$$$$

---

As a worked illustration, we turn to pIC50 data collected for Cathepsin D (Homo sapiens (Human)).
pIC50: −log10 of the molar value.
QUANTITY_MEASURED: pIC50

>  <COMPOUND>
C[C@]1(c2cc(NC(=O)c3ccc(F)cn3)ccc2F)N=C(N)OC2(CCOCC2)C1(F)F [Compound 9-157]

>  <TARGET_OR_TEST_SYSTEM>
Cathepsin D (Homo sapiens (Human))
Sequence (P07339 65-412, species assumed): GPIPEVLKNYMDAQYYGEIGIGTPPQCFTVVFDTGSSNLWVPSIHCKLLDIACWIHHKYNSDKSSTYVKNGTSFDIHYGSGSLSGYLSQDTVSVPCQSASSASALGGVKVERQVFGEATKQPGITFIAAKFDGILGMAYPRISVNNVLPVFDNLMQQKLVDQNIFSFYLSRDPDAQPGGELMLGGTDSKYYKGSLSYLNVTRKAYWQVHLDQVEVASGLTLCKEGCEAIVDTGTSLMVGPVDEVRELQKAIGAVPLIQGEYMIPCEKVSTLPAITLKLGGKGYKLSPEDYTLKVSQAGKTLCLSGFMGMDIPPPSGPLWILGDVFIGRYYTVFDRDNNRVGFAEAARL

>  <QUANTITY_MEASURED>
pIC50

>  <VALUE_OBSERVED>
< 4.52

$$$$
>  <COMPOUND>
CC#Cc1cncc(-c2ccc(F)c([C@]3(C)CC4(CCC4)OC(N)=N3)c2)c1 [Compound 8-111]

>  <TARGET_OR_TEST_SYSTEM>
Cathepsin D (Homo sapiens (Human))

>  <QUANTITY_MEASURED>
pIC50

>  <VALUE_OBSERVED>
5.29

$$$$
>  <COMPOUND>
Cc1nc(C(=O)Nc2ccc(F)c(C3(C)N=C(N)OC4(CCC4)C3(F)F)c2)co1 (centres unmarked) [Compound 9-165]

>  <TARGET_OR_TEST_SYSTEM>
Cathepsin D (Homo sapiens (Human))

>  <QUANTITY_MEASURED>
pIC50

>  <VALUE_OBSERVED>
< 4.52

$$$$
>  <COMPOUND>
CC1(c2cc(NC(=O)c3ccc(C#N)cn3)ccc2F)N=C(N)OC2(CCC2)C1(F)F (centres unmarked) [Compound 9-161]

>  <TARGET_OR_TEST_SYSTEM>
Cathepsin D (Homo sapiens (Human))

>  <QUANTITY_MEASURED>
pIC50

>  <VALUE_OBSERVED>
< 4.52

$$$$
>  <COMPOUND>
C[C@@]1(c2cc(NC(=O)c3ccc(C#N)cn3)ccc2F)CC2(CCC2)OC(N)=N1 [Compound 9-130]

>  <TARGET_OR_TEST_SYSTEM>
Cathepsin D (Homo sapiens (Human))

>  <QUANTITY_MEASURED>
pIC50

>  <VALUE_OBSERVED>
< 4.52

$$$$
>  <COMPOUND>
C[C@@]1(c2cc(NC(=O)c3ccc(F)cn3)ccc2F)CC2(COC2)SC(N)=N1 [Compound 9-146]

>  <TARGET_OR_TEST_SYSTEM>
Cathepsin D (Homo sapiens (Human))

>  <QUANTITY_MEASURED>
pIC50

>  <VALUE_OBSERVED>
< 4.52

$$$$
>  <COMPOUND>
C[C@@]1(c2cc(NC(=O)c3ccc(F)cn3)ccc2F)CC2(CCC(F)(F)CC2)OC(N)=N1 [Compound 9-123]

>  <TARGET_OR_TEST_SYSTEM>
Cathepsin D (Homo sapiens (Human))

>  <QUANTITY_MEASURED>
pIC50

>  <VALUE_OBSERVED>
< 4.52

$$$$
>  <COMPOUND>
C[C@@]1(c2cc(NC(=O)c3ccc(Cl)cn3)ccc2F)CC2(CCC2)OC(N)=N1 [Compound 9-129]

>  <TARGET_OR_TEST_SYSTEM>
Cathepsin D (Homo sapiens (Human))

>  <QUANTITY_MEASURED>
pIC50

>  <VALUE_OBSERVED>
< 4.52

$$$$
>  <COMPOUND>
C[C@@]1(c2cc(NC(=O)c3ccc(F)cn3)ccc2F)CC2(CCC2)SC(N)=N1 [Compound 9-144]

>  <TARGET_OR_TEST_SYSTEM>
Cathepsin D (Homo sapiens (Human))

>  <QUANTITY_MEASURED>
pIC50

>  <VALUE_OBSERVED>
< 4.52

$$$$
>  <COMPOUND>
CC1(c2cc(NC(=O)c3ccc(F)cn3)ccc2F)N=C(N)OC2(CCC2)C1(F)F (centres unmarked) [Compound 9-159]

>  <TARGET_OR_TEST_SYSTEM>
Cathepsin D (Homo sapiens (Human))

>  <QUANTITY_MEASURED>
pIC50

>  <VALUE_OBSERVED>
< 4.52

$$$$
>  <COMPOUND>
C[C@@]1(c2cc(NC(=O)c3ccc(F)cn3)ccc2F)CC2(CCOCC2)OC(N)=N1 [Compound 9-128]

>  <TARGET_OR_TEST_SYSTEM>
Cathepsin D (Homo sapiens (Human))

>  <QUANTITY_MEASURED>
pIC50

>  <VALUE_OBSERVED>
< 4.52

$$$$
>  <COMPOUND>
CC#Cc1cncc(-c2csc(C3(C)CC4(CCC4)OC(N)=N3)c2)c1 (centres unmarked) [Compound 8-103]

>  <TARGET_OR_TEST_SYSTEM>
Cathepsin D (Homo sapiens (Human))

>  <QUANTITY_MEASURED>
pIC50

>  <VALUE_OBSERVED>
5.10

$$$$
>  <COMPOUND>
C[C@]1(c2cc(NC(=O)c3ccc(F)cn3)ccc2F)CC2(CCC2)SC(N)=N1 [Compound 9-143]

>  <TARGET_OR_TEST_SYSTEM>
Cathepsin D (Homo sapiens (Human))

>  <QUANTITY_MEASURED>
pIC50

>  <VALUE_OBSERVED>
< 4.52

$$$$
>  <COMPOUND>
C[C@@]1(c2cc(NC(=O)c3ccc(Cl)cc3)ccc2F)CC2(CCC2)OC(N)=N1 [Compound 9-141]

>  <TARGET_OR_TEST_SYSTEM>
Cathepsin D (Homo sapiens (Human))

>  <QUANTITY_MEASURED>
pIC50

>  <VALUE_OBSERVED>
< 4.52

$$$$
>  <COMPOUND>
COc1cnc(C(=O)Nc2ccc(F)c([C@]3(C)CC4(CCC4)OC(N)=N3)c2)cn1 [Compound 9-135]

>  <TARGET_OR_TEST_SYSTEM>
Cathepsin D (Homo sapiens (Human))

>  <QUANTITY_MEASURED>
pIC50

>  <VALUE_OBSERVED>
< 4.52

$$$$
>  <COMPOUND>
C[C@]1(c2cc(NC(=O)c3ccc(C#N)cn3)ccc2F)N=C(N)OC2(CCC2)C1(F)F [Compound 9-162]

>  <TARGET_OR_TEST_SYSTEM>
Cathepsin D (Homo sapiens (Human))

>  <QUANTITY_MEASURED>
pIC50

>  <VALUE_OBSERVED>
< 4.52

$$$$
>  <COMPOUND>
C[C@@]1(c2cc(NC(=O)c3ncc(Cl)cc3F)ccc2F)CC2(CCC(F)(F)CC2)OC(N)=N1 [Compound 9-133]

>  <TARGET_OR_TEST_SYSTEM>
Cathepsin D (Homo sapiens (Human))

>  <QUANTITY_MEASURED>
pIC50

>  <VALUE_OBSERVED>
< 4.52

$$$$
>  <COMPOUND>
CC1(c2cc(NC(=O)c3ccc(F)cn3)ccc2F)CC2(CCOCC2)OC(N)=N1 (centres unmarked) [Compound 9-120]

>  <TARGET_OR_TEST_SYSTEM>
Cathepsin D (Homo sapiens (Human))

>  <QUANTITY_MEASURED>
pIC50

>  <VALUE_OBSERVED>
< 4.52

$$$$
>  <COMPOUND>
C[C@]1(c2cc(NC(=O)c3ccc(F)cn3)ccc2F)CC2(CCC2)OC(N)=N1 [Compound 9-127]

>  <TARGET_OR_TEST_SYSTEM>
Cathepsin D (Homo sapiens (Human))

>  <QUANTITY_MEASURED>
pIC50

>  <VALUE_OBSERVED>
< 4.52

$$$$
>  <COMPOUND>
CC1(c2cc(NC(=O)c3ccc(Cl)cn3)ccc2F)CC2(CCOCC2)OC(N)=N1 (centres unmarked) [Compound 9-121]

>  <TARGET_OR_TEST_SYSTEM>
Cathepsin D (Homo sapiens (Human))

>  <QUANTITY_MEASURED>
pIC50

>  <VALUE_OBSERVED>
< 4.52

$$$$
>  <COMPOUND>
CC1(c2cc(NC(=O)c3ccc(F)cn3)ccc2F)CC2(CCC2)OC(N)=N1 (centres unmarked) [Compound 9-125]

>  <TARGET_OR_TEST_SYSTEM>
Cathepsin D (Homo sapiens (Human))

>  <QUANTITY_MEASURED>
pIC50

>  <VALUE_OBSERVED>
< 4.52

$$$$
>  <COMPOUND>
CC1(c2cc(NC(=O)c3ccc(Cl)cn3)ccc2F)N=C(N)OC2(CCOCC2)C1(F)F (centres unmarked) [Compound 9-158]

>  <TARGET_OR_TEST_SYSTEM>
Cathepsin D (Homo sapiens (Human))

>  <QUANTITY_MEASURED>
pIC50

>  <VALUE_OBSERVED>
4.71

$$$$
>  <COMPOUND>
CC#Cc1cncc(-c2cc([C@]3(C)CC4(CCOCC4)OC(N)=N3)sc2C)c1 [Compound 8-108]

>  <TARGET_OR_TEST_SYSTEM>
Cathepsin D (Homo sapiens (Human))

>  <QUANTITY_MEASURED>
pIC50

>  <VALUE_OBSERVED>
5.03

$$$$
>  <COMPOUND>
CC#Cc1cncc(-c2csc(C3(C)N=C(N)OC4(CCOCC4)C3(F)F)c2)c1 (centres unmarked) [Compound 8-114]

>  <TARGET_OR_TEST_SYSTEM>
Cathepsin D (Homo sapiens (Human))

>  <QUANTITY_MEASURED>
pIC50

>  <VALUE_OBSERVED>
5.26

$$$$
>  <COMPOUND>
CC1(c2cc(NC(=O)c3ccc(F)cn3)ccc2F)N=C(N)OC2(CCOCC2)C1(F)F (centres unmarked) [Compound 9-155]

>  <TARGET_OR_TEST_SYSTEM>
Cathepsin D (Homo sapiens (Human))

>  <QUANTITY_MEASURED>
pIC50

>  <VALUE_OBSERVED>
< 4.52

$$$$
>  <COMPOUND>
CC#Cc1cncc(-c2csc(C3(C)CC4(CCOCC4)OC(N)=N3)c2)c1 (centres unmarked) [Compound 8-102]

>  <TARGET_OR_TEST_SYSTEM>
Cathepsin D (Homo sapiens (Human))

>  <QUANTITY_MEASURED>
pIC50

>  <VALUE_OBSERVED>
5.35

$$$$
